All values here come from ChEMBL document CHEMBL1961873.

target: Protein kinase C beta type (Homo sapiens) (UniProt P05771); conditions: at 1 µM;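 also: GSK PKIS screen, average inhibition of the PKC-beta2 splice variant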
Sequence (P05771 2-671 limits assumed): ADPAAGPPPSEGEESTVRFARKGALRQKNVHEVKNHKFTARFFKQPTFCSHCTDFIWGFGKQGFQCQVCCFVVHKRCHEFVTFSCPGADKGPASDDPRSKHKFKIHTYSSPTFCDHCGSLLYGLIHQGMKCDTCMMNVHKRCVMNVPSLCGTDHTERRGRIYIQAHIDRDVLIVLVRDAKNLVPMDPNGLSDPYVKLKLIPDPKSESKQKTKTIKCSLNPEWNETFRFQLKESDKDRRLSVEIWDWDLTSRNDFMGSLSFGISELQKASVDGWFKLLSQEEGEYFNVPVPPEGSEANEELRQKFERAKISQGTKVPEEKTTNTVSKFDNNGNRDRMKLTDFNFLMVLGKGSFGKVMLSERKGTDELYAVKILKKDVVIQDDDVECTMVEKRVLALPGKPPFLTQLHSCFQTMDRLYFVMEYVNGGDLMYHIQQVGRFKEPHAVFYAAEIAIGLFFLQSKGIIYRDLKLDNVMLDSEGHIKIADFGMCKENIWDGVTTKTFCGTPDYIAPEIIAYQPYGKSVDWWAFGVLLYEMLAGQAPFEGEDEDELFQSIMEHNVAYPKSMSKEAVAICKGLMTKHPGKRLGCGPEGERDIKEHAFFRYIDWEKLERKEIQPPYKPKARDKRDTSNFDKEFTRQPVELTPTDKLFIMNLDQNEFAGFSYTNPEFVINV
Description: GSK_PKIS: PKC-beta2 (splice variant) mean inhibition at 1 uM [Nanosyn]
property-label: inhibition (%)
Express it in %; write the number only.

Consider the worked cases shown below.
| compound-structure-string | property-label | value-reported |
| --- | --- | --- |
| NC(=O)c1cc(-c2ccc(F)cc2)cc(-c2ccncc2)c1N | inhibition | 1.35 |
| NS(=O)(=O)c1ccc(N/N=C2\C(=O)Nc3ccc(-c4cnco4)cc32)cc1 | inhibition | 1.12 |
| CCc1cccc(CC)c1/C=C/c1cncc(C(=O)NC)c1 | inhibition | -0.35 |
| CS(=O)(=O)CCNCc1ccc(-c2ccc3ncnc(Nc4ccc(OCc5ccccc5)c(Br)c4)c3c2)o1 | inhibition | 1.27 |
| Fc1ccc(-c2ncn(C3CCNCC3)c2-c2ccnc(Oc3ccc4c(c3)OCO4)n2)cc1 | inhibition | 5.69 |

# context switch: different molecule, same inhibition
Sure, the documented inhibition for Cc1nnc(-c2ccc(C)c(-c3ccc(C(=O)NCc4ccc(Cl)cc4)cc3)c2)o1 is 3.21

###

biological target: Serine/threonine-protein kinase PAK 3 (Homo sapiens) (UniProt O75914); details: at 0.1 µM;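 also: mean percent inhibition of PAK3, measured in a screen of the GSK published kinase inhibitor set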
Sequence (O75914 whole entry, looked up): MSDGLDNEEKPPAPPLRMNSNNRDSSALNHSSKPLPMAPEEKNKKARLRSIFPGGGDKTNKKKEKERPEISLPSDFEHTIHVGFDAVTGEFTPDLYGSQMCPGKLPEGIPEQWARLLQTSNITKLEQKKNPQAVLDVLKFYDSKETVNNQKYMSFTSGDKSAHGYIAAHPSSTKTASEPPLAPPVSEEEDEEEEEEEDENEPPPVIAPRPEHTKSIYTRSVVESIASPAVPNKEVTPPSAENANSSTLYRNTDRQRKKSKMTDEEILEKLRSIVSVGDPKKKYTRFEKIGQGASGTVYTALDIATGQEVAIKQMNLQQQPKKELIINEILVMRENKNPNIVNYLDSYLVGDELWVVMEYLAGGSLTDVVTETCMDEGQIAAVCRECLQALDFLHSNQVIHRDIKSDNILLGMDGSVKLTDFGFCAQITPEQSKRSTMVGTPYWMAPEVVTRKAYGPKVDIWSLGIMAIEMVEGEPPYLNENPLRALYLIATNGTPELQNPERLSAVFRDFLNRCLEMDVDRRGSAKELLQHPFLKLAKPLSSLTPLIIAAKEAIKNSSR
compounds and their reported inhibition
Express it in %; write the number only.

Consider the worked cases shown below.
| compound-structure-string | assay-system | inhibition (%) |
| --- | --- | --- |
| CCN(CC)Cc1ccc(Nc2nccc(-c3cnn4ncccc34)n2)cc1 | Serine/threonine-protein kinase PAK 3 (Homo sapiens) (UniProt O75914) | 4.82 |
| CCS(=O)(=O)c1ccc(OC)c(Nc2ncc(-c3ccccc3Cl)o2)c1 | Serine/threonine-protein kinase PAK 3 (Homo sapiens) (UniProt O75914) | -0.53 |
| Fc1ccc(-c2nc3n(c2-c2ccncc2)CCS3)cc1 | Serine/threonine-protein kinase PAK 3 (Homo sapiens) (UniProt O75914) | 4.5 |

Bench note, Serine/threonine-protein kinase PAK 3 (Homo sapiens) (UniProt O75914): entry C/C(Nc1ccc(S(N)(=O)=O)cc1)=C1/C(=O)Nc2ccccc21 , its inhibition = -1.9

Bench note, Serine/threonine-protein kinase PAK 3 (Homo sapiens) (UniProt O75914): entry CNC(=O)c1cncc(/C=C/c2c(C)cccc2C)c1 , its inhibition = -0.14

Bench note, Serine/threonine-protein kinase PAK 3 (Homo sapiens) (UniProt O75914): entry COc1cc2ncn(-c3cc(OCc4cccs4)c(C(N)=O)s3)c2cc1OC , its inhibition = 2

Bench note, Serine/threonine-protein kinase PAK 3 (Homo sapiens) (UniProt O75914): entry FC(F)(F)c1cccc(Nc2nccc(-c3cnn4nc(-c5ccccc5)ccc34)n2)c1 , its inhibition = 2.74

Bench note, Serine/threonine-protein kinase PAK 3 (Homo sapiens) (UniProt O75914): entry CN(C)c1ccc2c(c1)/C(=C/Nc1ccc(S(N)(=O)=O)cc1)C(=O)N2 , its inhibition = 1.32

Bench note, Serine/threonine-protein kinase PAK 3 (Homo sapiens) (UniProt O75914): entry O=C(NCC1CC1)c1ccc(-c2cccc(C(=O)NC3CC3)c2)cc1 , its inhibition = 2.9

###

target: Tyrosine-protein kinase Tec (Homo sapiens); conditions: at 1 µM;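 also: each value is the mean of the inhibition measurements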
compounds and their reported inhibition
Express it in %; write the number only.

Consider the worked cases shown below.
| compound-structure-string | unit-spec | inhibition |
| --- | --- | --- |
| CN(c1ccc(NC(=O)Nc2c(Cl)cccc2Cl)cc1)c1ccnc(Nc2cccc(CS(C)(=O)=O)c2)n1 | % | 21.4 |
| COc1ccc2cc(-c3c(-c4ccncc4)nc(-c4ccc(S(C)(=O)=O)cc4C)n3C)ccc2c1 | % | 5.26 |
| C[C@@H](Oc1cc(-n2cnc3ccc(OC4CCN(C)CC4)cc32)sc1C(N)=O)c1ccccc1Cl | % | 1.73 |
| NS(=O)(=O)c1ccc(N/N=C2\C(=O)Nc3ccc(C(=O)NCCCn4ccnc4)cc32)cc1 | % | 10.5 |

Bench note, Tyrosine-protein kinase Tec (Homo sapiens): entry NC(=O)Cc1ccccc1Oc1nccc(-c2c(-c3ccc(F)cc3)ncn2C2CCNCC2)n1 , its inhibition = 4.45
